- tgt: HLA-A*0203 (human)
- assayNotes: competitive binding assay, purified HLA
- assayConditions: remark: other sources report otherwise
Non-standard residues stand in square brackets, D forms with d. No end group written: not given here. Abu = CC[C@H](N)C(=O)O
measurementLabel: pIC50
// scale note: pIC50 = -log10(conc_M); give the bare number

Give the value of pIC50 reported for the following: KL[Abu]PVQLWV [p53.139L2B3]
7.70
